# maps each entry to its Activity
Species on record: Mus musculus
Experiment: Antiprion activity against mouse prion protein RML infected mouse ScN2a cells assessed as proteinase K-resistant PrPSc level at 0.1 uM incubated for 5 days followed by proteinase K digestion by Western blot method relative to control
Dear colleague, please return just the value in %, with no unit written.

>>> reported("C(=C\\c1cccs1)/NNc1nc2ccccc2n2cccc12")
88
>>> reported("C1=CC2=NC(N/N=C/c3ccnc4ccccc34)=C3CC=CN3C2C=C1 (stereo unspecified)")
90
>>> reported("COC(=O)C1=CC2=NC(N/N=C/c3ccnc4ccccc34)=C3CC=CN3C2C=C1 (stereo unspecified)")
104
>>> reported("COC1=CC2=NC(N/N=C/c3ccnc4ccccc34)=C3CC=CN3C2C=C1 (stereo unspecified)")
76
>>> reported("C1=CC2=NC(N/N=C/c3ccnc4ccccc34)=C3NC=CN3C2C=C1 (stereo unspecified)")
178
>>> reported("C1=CC2C(=NC(N/N=C/c3ccnc4ccccc34)=C3CC=CN32)N=C1 (stereo unspecified)")
128
>>> reported("COc1ccc2c(C)cc(N/N=C/c3ccnc4ccccc34)nc2c1")
88
>>> reported("C1=CC2=NC(N/N=C/c3ccc4ccccc4n3)=C3CC=CN3C2C=C1 (stereo unspecified)")
54
>>> reported("C(=C\\c1ccco1)/NNc1nc2ccccc2n2cccc12")
105
>>> reported("FC1=CC2=NC(N/N=C/c3ccnc4ccccc34)=C3NC=CN3C2C=C1 (stereo unspecified)")
76

Would you kindly look at the next entry?
Prompt line: Query: Activity; subject: CC1=CC2=NC(N/N=C/c3ccnc4ccccc34)=C3CC=CN3C2C=C1C (stereo unspecified)
Response line: 137

* * *

Organism: Mus musculus
Test: Antiprion activity against mouse prion protein RML infected mouse ScN2a cells assessed as proteinase K-resistant PrPSc level at 1 uM incubated for 5 days followed by proteinase K digestion by Western blot method relative to control
ASSAY READOUT: Activity

>>> reported("CC1=CC2=NC(N/N=C/c3ccnc4ccccc34)=C3CC=CN3C2C=C1C (stereo unspecified)")
"100%"
>>> reported("C1=CC2C(=NC(N/N=C/c3ccnc4ccccc34)=C3CC=CN32)N=C1 (stereo unspecified)")
"144%"
>>> reported("FC1=CC2=NC(N/N=C/c3ccnc4ccccc34)=C3NC=CN3C2C=C1 (stereo unspecified)")
"34%"
>>> reported("C1=CC2=NC(N/N=C/c3ccc4ccccc4n3)=C3CC=CN3C2C=C1 (stereo unspecified)")
"47%"

Prompt line: Query: Activity; subject: C1=CC2=NC(N/N=C/c3ccnc4ccccc34)=C3CC=CN3C2C=C1 (stereo unspecified)
Response line: 78%

Prompt line: Please do the same for COC(=O)C1=CC2=NC(N/N=C/c3ccnc4ccccc34)=C3CC=CN3C2C=C1 (stereo unspecified) as well.
Response line: 131%

Prompt line: Please do the same for C(=C\c1cccs1)/NNc1nc2ccccc2n2cccc12 as well.
Response line: 79%

* * *

Species on record: Mus musculus
Assay: Antiprion activity against mouse prion protein RML infected mouse ScN2a cells assessed as proteinase K-resistant PrPSc level at 10 uM incubated for 5 days followed by proteinase K digestion by Western blot method relative to control
ASSAY READOUT: Activity (%)
Dear colleague, please return just the value in %, with no unit written.

Known Activity results, listed for orientation:
>>> reported("COC1=CC2=NC(N/N=C/c3ccnc4ccccc34)=C3CC=CN3C2C=C1 (stereo unspecified)")
9
>>> reported("CC1=CC2=NC(N/N=C/c3ccnc4ccccc34)=C3CC=CN3C2C=C1C (stereo unspecified)")
29
>>> reported("C1=CC2=NC(N/N=C/c3ccnc4ccccc34)=C3CC=CN3C2C=C1 (stereo unspecified)")
27
>>> reported("C(=C\\c1cccs1)/NNc1nc2ccccc2n2cccc12")
72
>>> reported("C(=C\\c1ccco1)/NNc1nc2ccccc2n2cccc12")
35
>>> reported("C1=CC2=NC(N/N=C/c3ccnc4ccccc34)=C3NC=CN3C2C=C1 (stereo unspecified)")
30
>>> reported("C1=CC2=NC(N/N=C/c3ccc4ccccc4n3)=C3CC=CN3C2C=C1 (stereo unspecified)")
34
>>> reported("COc1ccc2c(C)cc(N/N=C/c3ccnc4ccccc34)nc2c1")
13

Prompt line: Query: Activity; subject: COC(=O)C1=CC2=NC(N/N=C/c3ccnc4ccccc34)=C3CC=CN3C2C=C1 (stereo unspecified)
Response line: 30

Prompt line: Please do the same for C1=CC2C(=NC(N/N=C/c3ccnc4ccccc34)=C3CC=CN32)N=C1 (stereo unspecified) as well.
Response line: 83

Prompt line: Please do the same for FC1=CC2=NC(N/N=C/c3ccnc4ccccc34)=C3NC=CN3C2C=C1 (stereo unspecified) as well.
Response line: 31

* * *

Experiment: Cytotoxicity against mouse ScN2a cells assessed as cell viability at 10 uM after 5 days by MTT assay relative to control
Format: cell-based
Details: read-out: Activity
# maps each entry to its viability at 120 h, 10 µM
Dear colleague, please return just the value in %, with no unit written.

>>> reported("COc1ccc2c(C)cc(N/N=C/c3ccnc4ccccc34)nc2c1")
83.8
>>> reported("COC(=O)C1=CC2=NC(N/N=C/c3ccnc4ccccc34)=C3CC=CN3C2C=C1 (configuration not stated)")
67.1
>>> reported("C1=CC2=NC(N/N=C/c3ccnc4ccccc34)=C3NC=CN3C2C=C1 (configuration not stated)")
83.2
>>> reported("C1=CC2=NC(N/N=C/c3ccc4ccccc4n3)=C3CC=CN3C2C=C1 (configuration not stated)")
90.9
>>> reported("COC1=CC2=NC(N/N=C/c3ccnc4ccccc34)=C3CC=CN3C2C=C1 (configuration not stated)")
83.3

Prompt line: Query: viability at 120 h, 10 µM; subject: FC1=CC2=NC(N/N=C/c3ccnc4ccccc34)=C3NC=CN3C2C=C1 (configuration not stated)
Response line: 72.9

Prompt line: Please do the same for COC(=O)C1=CC2=NC(N/N=C/c3ccc4ccccc4n3)=C3CC=CN3C2C=C1 (configuration not stated) as well.
Response line: 45.4

Prompt line: Please do the same for C1=CC2C(=NC(N/N=C/c3ccnc4ccccc34)=C3CC=CN32)N=C1 (configuration not stated) as well.
Response line: 75.6

* * *

Assay: Cytotoxicity against mouse ScN2a cells assessed as cell viability at 1 uM after 5 days by MTT assay relative to control
Type: cell-based
Settings: read-out: Activity
ASSAY READOUT: viability at 120 h, 1 µM
Please answer in the form of a number followed by its unit of measurement.

Known viability at 120 h, 1 µM results, listed for orientation:
>>> reported("C(=C\\c1cccs1)/NNc1nc2ccccc2n2cccc12")
"81.9%"
>>> reported("COC(=O)C1=CC2=NC(N/N=C/c3ccc4ccccc4n3)=C3CC=CN3C2C=C1 (stereo not given)")
"88.2%"
>>> reported("c1ccc2c(NCCCCCCCCNc3c4c(nc5ccccc35)CCCC4)c3c(nc2c1)CCCC3")
"0.7%"

Prompt line: Query: viability at 120 h, 1 µM; subject: COC1=CC2=NC(N/N=C/c3ccnc4ccccc34)=C3CC=CN3C2C=C1 (stereo not given)
Response line: 96.3%

Prompt line: Please do the same for C1=CC2C(=NC(N/N=C/c3ccnc4ccccc34)=C3CC=CN32)N=C1 (stereo not given) as well.
Response line: 98.6%

* * *

Species on record: Mus musculus
Assay: Antiprion activity against mouse prion protein RML infected mouse ScN2a cells assessed as proteinase K-resistant PrPSc level at 1 uM incubated for 5 days followed by proteinase K digestion by Western blot method relative to control
# maps each entry to its Activity
Dear colleague, please return just the value in %, with no unit written.

Known Activity results, listed for orientation:
>>> reported("C(=C\\c1ccco1)/NNc1nc2ccccc2n2cccc12")
86
>>> reported("COC1=CC2=NC(N/N=C/c3ccnc4ccccc34)=C3CC=CN3C2C=C1 (centres undefined)")
35
>>> reported("COc1ccc2c(C)cc(N/N=C/c3ccnc4ccccc34)nc2c1")
77

Would you kindly look at the next entry?
Prompt line: Query: Activity; subject: C1=CC2=NC(N/N=C/c3ccnc4ccccc34)=C3NC=CN3C2C=C1 (centres undefined)
Response line: 131

* * *

Assay: Cytotoxicity against mouse ScN2a cells assessed as cell viability at 10 uM after 5 days by MTT assay relative to control
Assay type: cell-based
Details: read-out: Activity
ASSAY READOUT: viability at 120 h, 10 µM (%)
Dear colleague, please return just the value in %, with no unit written.

Known viability at 120 h, 10 µM results, listed for orientation:
>>> reported("C(=C\\c1cccs1)/NNc1nc2ccccc2n2cccc12")
80.7
>>> reported("C1=CC2=NC(N/N=C/c3ccnc4ccccc34)=C3CC=CN3C2C=C1 (centres undefined)")
87
>>> reported("CC1=CC2=NC(N/N=C/c3ccnc4ccccc34)=C3CC=CN3C2C=C1C (centres undefined)")
86.5

Would you kindly look at the next entry?
Prompt line: Query: viability at 120 h, 10 µM; subject: C(=C\c1ccco1)/NNc1nc2ccccc2n2cccc12
Response line: 71.4
